Listing: CA (Frequency), cardiac arrest of selected molecules
- System: rat heart
- protocol_text: Effect on incidence of arrhythmia caused by ischemia and following reperfusion in rat heart
- Type: in vivo
- experimental_setup: 30 mg/kg oral, 1 hour before ligation; until 10 minutes after reperfusion
readout_kind: CA (Frequency), cardiac arrest

{"columns": ["chemical_string", "readout_kind", "result_value"],
 "data": [
  ["CNC(=O)OCCSc1cccc2nccn12", "CA (Frequency), cardiac arrest", "0/3"],
  ["CS(=O)(=O)NCCSc1cccc2nccn12", "CA (Frequency), cardiac arrest", "0/4"],
  ["CS(=O)(=O)NCCCOc1cccc2nccn12", "CA (Frequency), cardiac arrest", "1/3"],
  ["O=C(NCc1ccncc1)OCCSc1cccc2nccn12", "CA (Frequency), cardiac arrest", "0/3"],
  ["CC(=O)Nc1ccc(S(=O)(=O)NCCSc2cccc3nccn23)cc1", "CA (Frequency), cardiac arrest", "1/3"]
]}

* * *

- study_system: calmodulin (Bos taurus, UniProt P62157)
- protocol_text: Calmodulin inhibitory activity (calmodulin-activated cyclic nucleotide phosphodiesterase, [3H]cGMP)
- Type: biochemical
- experimental_setup: 10^-5 M

{"columns": ["compound", "measurement_units", "inhibition at 10 µM"],
 "data": [
  ["O=S(=O)(NCCCCCOc1cccc2nccn12)C(F)(F)F", "%", 57],
  ["Cc1cn2c(SCCNC(=S)Nc3ccccc3)cccc2n1", "%", 53],
  ["O=S(=O)(NCCCSc1cccc2nccn12)C(F)(F)F", "%", 72],
  ["CS(=O)(=O)NCCCSc1cccc2nccn12", "%", 51],
  ["CC(=O)Nc1ccc(S(=O)(=O)NCCSc2cccc3nccn23)cc1", "%", 62],
  ["COC(=O)NCCCSc1cccc2nccn12", "%", 63],
  ["O=S(=O)(NCCOc1cccc2nccn12)c1cccc2ccccc12", "%", 56],
  ["O=S(=O)(NCCCOc1cccc2nccn12)c1cccc2ccccc12", "%", 50],
  ["CC(C)OC(=O)NCCCCSc1cccc2nccn12", "%", 58],
  ["CC(C)S(=O)(=O)NCCSc1cccc2nccn12", "%", 50],
  ["CCCCCCCCCCCCCCCCS(=O)(=O)NCCSc1cccc2nccn12", "%", 100],
  ["CCCOC(=O)NCCSc1cccc2nccn12", "%", 50],
  ["O=S(=O)(N1CCC(Sc2cccc3nccn23)CC1)C(F)(F)F", "%", 65],
  ["CC(=O)Nc1nc(C)c(S(=O)(=O)NCCSc2cccc3nccn23)s1", "%", 83],
  ["O=C(NCCSc1cccc2nccn12)NC1CCCCC1", "%", 67],
  ["CCNC(=O)NCCSc1cccc2nccn12", "%", 56],
  ["O=S(=O)(NCCSc1cccc2nccn12)c1ccccc1", "%", 64],
  ["Cc1cn2c(SCCNS(=O)(=O)c3cccc4ccccc34)cccc2n1", "%", 62],
  ["O=S(=O)(NCCSc1cccc2nccn12)c1ccc2ccccc2c1", "%", 65],
  ["O=S(=O)(NCC(Oc1cccc2nccn12)c1ccccc1)C(F)(F)F (centres unmarked)", "%", 55],
  ["CC(C)OC(=O)NCCSc1cccc2nccn12", "%", 50],
  ["CS(=O)(=O)NCCCOc1cccc2nccn12", "%", 82],
  ["O=C(NCCSc1cccc2nccn12)c1cccs1", "%", 54],
  ["O=C(NCCSc1cccc2nccn12)OCC(Cl)(Cl)Cl", "%", 52],
  ["CS(=O)(=O)NCC(Oc1cccc2nccn12)c1ccccc1 (centres unmarked)", "%", 50],
  ["CC(=O)NCCSc1cccc2nccn12", "%", 76],
  ["CC(C)OC(=O)NCCSc1cccc2ncc(CN3CCOCC3)n12", "%", 60],
  ["O=S(=O)(NCCCCSc1cccc2nccn12)c1cccc2ccccc12", "%", 56],
  ["O=S(=O)(NCCSc1cccc2nccn12)C(F)(F)F", "%", 100],
  ["CNC(=O)OCCSc1cccc2nccn12", "%", 74],
  ["CN(C)Cc1cnc2cccc(SCCNS(C)(=O)=O)n12", "%", 66],
  ["O=C(NCc1ccncc1)OCCSc1cccc2nccn12", "%", 57],
  ["CCCNC(=O)NCCSc1cccc2nccn12", "%", 52],
  ["O=S(=O)(N1CCC(Oc2cccc3nccn23)CC1)C(F)(F)F", "%", 80],
  ["CC(=O)N(CCCSc1cccc2nccn12)CCNc1ccccc1", "%", 81],
  ["O=C(NCCSc1cccc2nccn12)c1ccccc1", "%", 51],
  ["O=S(=O)(/C=C/c1ccccc1)N(CCSc1cccc2nccn12)S(=O)(=O)/C=C/c1ccccc1", "%", 65],
  ["O=S(=O)(NCCCCOc1cccc2nccn12)C(F)(F)F", "%", 72],
  ["CN(C)c1cccc2c(S(=O)(=O)NCCSc3cccc4nccn34)cccc12", "%", 50],
  ["C=CCOC(=O)NCCSc1cccc2nccn12", "%", 60],
  ["O=S(=O)(NCCSc1cccc2nccn12)c1ccc(Cl)cc1", "%", 53]
]}
